Just for reference, the supplement of paper PMC4466140 is where these values come from.

Target: CaFus1
Assay: SPOT peptide array binding signal intensity (averaged, normalized) (arbitrary units (background-subtracted, floor 0; scale differs between SH3 domains)); higher = stronger binding of the SH3 domain to the peptide
MEASURED_ENDPOINT: SPOT peptide array binding signal intensity

PAPPPPPRASRPTPN: 45.5
LPPPPPPPPPPPLPQ: ≤ 0
LASNSPPVYPKRIRH: ≤ 0
VQKRKLPLPGSIASA: ≤ 0
NLKKRPPTAPQRKIS: 254
GKLKHIPRRPYEIER: ≤ 0

Shifting focus to the binder that follows.
q: Consider the binder KTKQQKPAIPQKKSF and give its measured SPOT peptide array binding signal intensity.
a: ≤ 0
